Trimeric HA Binding RLU values by entry
# EXPERIMENTAL TARGET: recombinant homotrimeric HA, A/Solomon Islands/3/06 H1N1 (Influenza A virus A/Solomon Islands/3/06 (H1N1))
# ASSAY TEXT: trimeric HA microarray, transfection set 2
# REPORTED CONDITIONS: remark: other sources report otherwise
MEASUREMENT TYPE: Trimeric HA Binding RLU (RLU)

- TCN-527 (5086_C06) (antibody, V domains shown) VH: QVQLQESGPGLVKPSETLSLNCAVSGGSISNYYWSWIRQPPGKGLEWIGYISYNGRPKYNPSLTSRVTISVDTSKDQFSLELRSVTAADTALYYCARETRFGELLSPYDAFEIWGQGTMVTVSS VL: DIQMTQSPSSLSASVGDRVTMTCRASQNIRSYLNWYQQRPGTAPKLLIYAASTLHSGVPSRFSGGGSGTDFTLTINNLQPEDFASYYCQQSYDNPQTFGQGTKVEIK: 19700
- TCN-522 (3212_I12) (antibody, V domains shown) VH: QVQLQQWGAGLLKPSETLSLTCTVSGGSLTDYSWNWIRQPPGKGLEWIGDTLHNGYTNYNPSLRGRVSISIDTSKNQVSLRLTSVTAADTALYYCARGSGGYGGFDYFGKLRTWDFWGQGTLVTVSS VL: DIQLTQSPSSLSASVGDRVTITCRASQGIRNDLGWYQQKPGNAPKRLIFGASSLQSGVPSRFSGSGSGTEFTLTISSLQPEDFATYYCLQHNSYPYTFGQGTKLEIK: 17300
- TCN-523 (5248_A17) (antibody, V domains shown) VH: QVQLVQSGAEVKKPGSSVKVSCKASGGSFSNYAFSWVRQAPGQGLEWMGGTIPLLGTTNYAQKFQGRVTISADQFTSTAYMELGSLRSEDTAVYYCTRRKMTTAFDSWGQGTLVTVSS VL: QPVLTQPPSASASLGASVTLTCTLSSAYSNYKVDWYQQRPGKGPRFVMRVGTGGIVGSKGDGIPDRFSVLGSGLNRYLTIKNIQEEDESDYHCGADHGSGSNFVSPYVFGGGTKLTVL: 3270

Hey, just so you know, these numbers are from patent US20120207760A1.
